- Target desc: T1, EsCas13d, nuclease-dead (Eubacterium siraeum, UniProt B0MS50, R295A;H300A;R849A;H854A)
- T1 sequence: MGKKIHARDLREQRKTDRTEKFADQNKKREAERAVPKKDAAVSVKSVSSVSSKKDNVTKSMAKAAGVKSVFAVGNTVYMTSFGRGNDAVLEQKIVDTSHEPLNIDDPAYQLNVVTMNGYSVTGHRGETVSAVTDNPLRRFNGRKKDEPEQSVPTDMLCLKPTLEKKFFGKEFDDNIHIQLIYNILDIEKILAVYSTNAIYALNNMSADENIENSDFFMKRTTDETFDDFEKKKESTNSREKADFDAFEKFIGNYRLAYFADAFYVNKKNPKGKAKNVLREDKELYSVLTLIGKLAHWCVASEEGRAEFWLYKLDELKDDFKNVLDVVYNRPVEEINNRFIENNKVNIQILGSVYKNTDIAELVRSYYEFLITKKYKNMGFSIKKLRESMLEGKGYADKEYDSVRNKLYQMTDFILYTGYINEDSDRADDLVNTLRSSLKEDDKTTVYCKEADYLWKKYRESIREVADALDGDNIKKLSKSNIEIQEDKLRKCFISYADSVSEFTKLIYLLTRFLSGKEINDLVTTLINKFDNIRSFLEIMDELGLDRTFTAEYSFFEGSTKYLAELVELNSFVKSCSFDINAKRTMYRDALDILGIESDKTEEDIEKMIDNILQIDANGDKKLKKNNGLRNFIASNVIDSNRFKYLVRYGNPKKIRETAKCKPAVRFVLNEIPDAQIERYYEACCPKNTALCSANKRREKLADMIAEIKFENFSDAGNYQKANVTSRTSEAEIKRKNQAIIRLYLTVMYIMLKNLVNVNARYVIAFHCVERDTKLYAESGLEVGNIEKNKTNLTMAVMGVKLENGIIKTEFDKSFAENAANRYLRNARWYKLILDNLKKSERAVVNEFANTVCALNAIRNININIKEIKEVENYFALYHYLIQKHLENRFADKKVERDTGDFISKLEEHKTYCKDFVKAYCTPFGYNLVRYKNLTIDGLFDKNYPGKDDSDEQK
- Protocol details: crRNA (strand 1, pre-loaded); Mg2+; 40 mM Tris-HCl pH 7.5, 150 mM NaCl, 6 mM MgCl2, 1 mM DTT, 0.1% Tween-20, 0.2 mg/ml BSA; 25 C; 10 min per concentration, then washed
- Applied conditions: tags: His6-TwinStrep-SUMO cleaved; N-terminal SNAP kept (SNAP-Surface 488); label: 3' end held by stalled T7 RNA polymerase
Task for the reader: assign each of the following binders its reported Kd.
Answers are plain numbers, in nM.

Solved cases below.
Binder	Unit of measure	Measured value
target 1 insC 3' of 13,insC 3' of 12 (mixed) RNA 1: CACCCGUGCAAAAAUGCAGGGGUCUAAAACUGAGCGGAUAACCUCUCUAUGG RNA 2: GGGAAUGGAUCCACAUCUACGAAUUCGUACCAUAGAGAGCGCUUAUCCGCUCACCGAGAUCGGAAGAGCACACGU	nM	17.7
target 1 insU 3' of 17,insC 3' of 9 (mixed) RNA 1: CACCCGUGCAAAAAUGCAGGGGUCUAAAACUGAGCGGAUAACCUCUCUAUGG RNA 2: GGGAAUGGAUCCACAUCUACGAAUUCGUACCAUAGUAGAGGUUACUCCGCUCACCGAGAUCGGAAGAGCACACGU	nM	25.1
target 1 insA 3' of 6,insU 3' of 6 (mixed) RNA 1: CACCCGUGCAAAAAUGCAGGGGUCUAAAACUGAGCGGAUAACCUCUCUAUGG RNA 2: GGGAAUGGAUCCACAUCUACGAAUUCGUACCAUAGAGAGGUUAUCCAUGCUCACCGAGAUCGGAAGAGCACACGU	nM	28.9

stdin: # get_value(readout='Kd', item= target 1 MT 5'PFS GUG 3'PFS UAG (mixed) RNA 1: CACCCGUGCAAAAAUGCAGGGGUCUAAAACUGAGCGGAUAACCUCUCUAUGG RNA 2: GGGAAUGGAUCCACAUCUACGAAUUCGUGCCAUAGAGAGGUUAUCCGCUCAUAGAGAUCGGAAGAGCACACGU )
stdout: 16
